- test-system: peripheral benzodiazepine receptor (PBR) (Rattus norvegicus, UniProt P16257)
- measurement-description: NIMH PDSP radioligand competition binding, PBR
- condition-notes: Binding Affinity (Ki, nM), PBR; [3H]PK11195; rat kidney, natively expressed
quantity-kind: Ki

[[record]]
compound = "C=CCN(CC=C)CCc1c[nH]c2c(CC)cccc12 [7-Et-DALT, 7-ethyl-N,N-diallyltryptamine]"
test_system = "peripheral benzodiazepine receptor (PBR) (Rattus norvegicus, UniProt P16257)"
endpoint_result = "> 10000 nM"


Exercise: # lookup: Ki of C=CCN(CC=C)CCc1c(-c2ccccc2)[nH]c2ccccc12 [2-Ph-DALT, 2-phenyl-N,N-diallyltryptamine]
Solution: 1930 nM

Exercise: # lookup: Ki of C=CCN(CC=C)CCc1c(C)[nH]c2ccc(F)cc12 [5-F-2-Me-DALT, 5-fluoro-2-methyl-N,N-diallyltryptamine]
Solution: > 10000 nM

Exercise: # lookup: Ki of C=CCN(CC=C)CCc1c[nH]c2cccc(O)c12 [4-HO-DALT, 4-hydroxy-N,N-diallyltryptamine]
Solution: > 10000 nM

Exercise: # lookup: Ki of C=CCN(CC=C)CCc1c[nH]c2cccc(OC(C)=O)c12 [4-AcO-DALT, 4-acetoxy-N,N-diallyltryptamine]
Solution: > 10000 nM

Exercise: # lookup: Ki of C=CCN(CC=C)CCc1c(C)[nH]c2ccc(OC)cc12 [5-MeO-2-Me-DALT, 5-methoxy-2-methyl-N,N-diallyltryptamine]
Solution: > 10000 nM

====

- test-system: σ2 (Rattus norvegicus)
- Sequence (Q5U3Y7 1-176): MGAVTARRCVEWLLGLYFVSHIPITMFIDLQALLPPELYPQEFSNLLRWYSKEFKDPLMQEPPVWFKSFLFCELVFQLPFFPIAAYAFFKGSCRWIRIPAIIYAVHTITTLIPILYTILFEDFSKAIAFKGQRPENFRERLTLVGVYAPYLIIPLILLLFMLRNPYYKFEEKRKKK
- measurement-description: NIMH PDSP radioligand competition binding, σ2
quantity-kind: pKi
In textbook form, pKi equals minus log to base ten of the concentration in mol/L.

[[record]]
structure_smiles = "C=CCN(CC=C)CCc1c(C)[nH]c2ccc(OC)cc12"
endpoint_result = 5.91

[[record]]
structure_smiles = "C=CCN(CC=C)CCc1c(C)[nH]c2ccc(F)cc12"
endpoint_result = 6.40


Exercise: # lookup: pKi of C=CCN(CC=C)CCc1c(-c2ccccc2)[nH]c2ccccc12
Solution: 6.14

Exercise: # lookup: pKi of C=CCN(CC=C)CCc1c[nH]c2c(CC)cccc12
Solution: 6.87

====

// each record: one item and its Ki for dopamine transporter (DAT) (Homo sapiens)
Express the result in nM but write the number alone.

Recorded results for 3 compounds are shown here.
[[record]]
compound = "C=CCN(CC=C)CCc1c(-c2ccccc2)[nH]c2ccccc12 [2-Ph-DALT, 2-phenyl-N,N-diallyltryptamine]"
endpoint_result = 746

[[record]]
compound = "C=CCN(CC=C)CCc1c[nH]c2c(CC)cccc12 [7-Et-DALT, 7-ethyl-N,N-diallyltryptamine]"
endpoint_result = 1730

[[record]]
compound = "C=CCN(CC=C)CCc1c(C)[nH]c2ccc(OC)cc12 [5-MeO-2-Me-DALT, 5-methoxy-2-methyl-N,N-diallyltryptamine]"
endpoint_result = 2410


Exercise: Entry C=CCN(CC=C)CCc1c(C)[nH]c2ccc(F)cc12 [5-F-2-Me-DALT, 5-fluoro-2-methyl-N,N-diallyltryptamine] , system dopamine transporter (DAT) (Homo sapiens): what Ki was measured?
Solution: 2210

====

- test-system: σ1 (Rattus norvegicus)
pKi: −log10 of the molar value.
Each entry gets false (0) if its pKi stays under 7, and true (1) if its pKi is 7 or above.

Here are 5 molecules together with their reported answers.
[[record]]
molecule = "C=CCN(CC=C)CCc1c(C)[nH]c2ccc(F)cc12"
assigned_label = "false (0)"

[[record]]
molecule = "C=CCN(CC=C)CCc1c[nH]c2cccc(OC(C)=O)c12"
assigned_label = "false (0)"

[[record]]
molecule = "C=CCN(CC=C)CCc1c(-c2ccccc2)[nH]c2ccccc12"
assigned_label = "false (0)"

[[record]]
molecule = "C=CCN(CC=C)CCc1c(C)[nH]c2ccc(OC)cc12"
assigned_label = "false (0)"

[[record]]
molecule = "C=CCN(CC=C)CCc1c[nH]c2c(CC)cccc12"
assigned_label = "true (1)"


Exercise: Tell me whether pKi is at least 7 here: C=CCN(CC=C)CCc1c[nH]c2cccc(O)c12 [4-HO-DALT, 4-hydroxy-N,N-diallyltryptamine]
Solution: false (0)

====

// each record: one item and its pKi for 5-HT6 (Homo sapiens, UniProt P50406)
In textbook form, pKi equals minus log to base ten of the concentration in mol/L.

Recorded results for 4 molecules are shown here.
[[record]]
molecule = "C=CCN(CC=C)CCc1c[nH]c2cccc(OC(C)=O)c12 [4-AcO-DALT, 4-acetoxy-N,N-diallyltryptamine]"
endpoint_result = 5.75

[[record]]
molecule = "C=CCN(CC=C)CCc1c(C)[nH]c2ccc(OC)cc12 [5-MeO-2-Me-DALT, 5-methoxy-2-methyl-N,N-diallyltryptamine]"
endpoint_result = 6.69

[[record]]
molecule = "C=CCN(CC=C)CCc1c[nH]c2cccc(O)c12 [4-HO-DALT, 4-hydroxy-N,N-diallyltryptamine]"
endpoint_result = 6.67

[[record]]
molecule = "C=CCN(CC=C)CCc1c(C)[nH]c2ccc(F)cc12 [5-F-2-Me-DALT, 5-fluoro-2-methyl-N,N-diallyltryptamine]"
endpoint_result = 6.77


Query molecule follows.
Exercise: Entry C=CCN(CC=C)CCc1c(-c2ccccc2)[nH]c2ccccc12 [2-Ph-DALT, 2-phenyl-N,N-diallyltryptamine] , system 5-HT6 (Homo sapiens, UniProt P50406): what pKi was measured?
Solution: 7.17

====

- Test system: head twitch response (5-HT2A receptor-mediated)
- measurement-description: Head twitch response
- Format: in vivo, C57BL/6J mice
- condition-notes: 1.75 mg/kg IP; duration 30 min
Recorded HTR Counts (mean ± SEM) for the following compounds
Answer using only a numeral; do not append any unit.

Recorded results for 3 compounds are shown here.
[[record]]
structure_smiles = "C=CCN(CC=C)CCc1c(-c2ccccc2)[nH]c2ccccc12"
quantity_kind = "HTR Counts (mean ± SEM)"
endpoint_result = 3.6

[[record]]
structure_smiles = "C=CCN(CC=C)CCc1c[nH]c2ccc(F)cc12"
quantity_kind = "HTR Counts (mean ± SEM)"
endpoint_result = 21.0

[[record]]
structure_smiles = "C=CCN(CC=C)CCc1c[nH]c2ccccc12"
quantity_kind = "HTR Counts (mean ± SEM)"
endpoint_result = 6.8


Exercise: # lookup: HTR Counts (mean ± SEM) of C=CCN(CC=C)CCc1c[nH]c2cccc(OC(C)=O)c12
Solution: 42.0

Exercise: # lookup: HTR Counts (mean ± SEM) of C=CCN(CC=C)CCc1c(C)[nH]c2ccc(F)cc12
Solution: 6.8

Exercise: # lookup: HTR Counts (mean ± SEM) of C=CCN(CC=C)CCc1c(C)[nH]c2ccc(OC)cc12
Solution: 7.4

====

- test-system: α1D (Homo sapiens, UniProt P25100)
- Sequence (P25100 1-572): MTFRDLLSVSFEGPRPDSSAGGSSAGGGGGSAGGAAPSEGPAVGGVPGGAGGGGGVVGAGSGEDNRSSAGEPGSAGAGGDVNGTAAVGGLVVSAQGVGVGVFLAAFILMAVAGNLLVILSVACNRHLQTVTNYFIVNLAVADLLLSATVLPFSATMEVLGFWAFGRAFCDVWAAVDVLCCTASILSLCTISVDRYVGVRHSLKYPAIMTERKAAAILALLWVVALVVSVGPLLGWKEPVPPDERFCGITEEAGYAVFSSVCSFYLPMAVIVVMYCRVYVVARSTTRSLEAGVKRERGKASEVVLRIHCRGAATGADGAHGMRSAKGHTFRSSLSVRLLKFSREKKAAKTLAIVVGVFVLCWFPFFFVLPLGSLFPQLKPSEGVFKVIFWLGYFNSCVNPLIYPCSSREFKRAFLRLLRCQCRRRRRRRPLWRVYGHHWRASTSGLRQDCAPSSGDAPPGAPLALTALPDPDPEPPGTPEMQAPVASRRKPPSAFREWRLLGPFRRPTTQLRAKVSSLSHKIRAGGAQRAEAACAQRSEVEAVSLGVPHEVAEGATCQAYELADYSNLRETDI
quantity-kind: Ki

[[record]]
molecule = "C=CCN(CC=C)CCc1c(-c2ccccc2)[nH]c2ccccc12"
quantity_kind = "Ki"
endpoint_result = "0.243 µM"

[[record]]
molecule = "C=CCN(CC=C)CCc1c[nH]c2cccc(O)c12 [4-HO-DALT, 4-hydroxy-N,N-diallyltryptamine]"
quantity_kind = "Ki"
endpoint_result = "> 10 µM"

[[record]]
molecule = "C=CCN(CC=C)CCc1c(C)[nH]c2ccc(F)cc12"
quantity_kind = "Ki"
endpoint_result = "> 10 µM"


Exercise: # lookup: Ki of C=CCN(CC=C)CCc1c[nH]c2c(CC)cccc12
Solution: > 10 µM

Exercise: # lookup: Ki of C=CCN(CC=C)CCc1c[nH]c2cccc(OC(C)=O)c12
Solution: > 10 µM

Exercise: # lookup: Ki of C=CCN(CC=C)CCc1c(C)[nH]c2ccc(OC)cc12
Solution: 2.41 µM
